As an illustration, consider measured ID50 for compounds on Gag-Pol polyprotein (Moloney murine leukemia virus isolate Shinnick) (UniProt P03355).
quantity-kind: ID50 (µg/mL)

• N=C(N)c1ccc(/C=C/c2ccc(C(=N)N)cc2)cc1 = 12
• C(/C=C/c1cc2cc(C3=NCCN3)ccc2o1)=C\c1cc2cc(C3=NCCN3)ccc2o1 = 1
• N=C(N)c1ccc2[nH]c(/C=C/c3nc4cc(C(=N)N)ccc4[nH]3)nc2c1 = 100
• N=C(N)c1ccc(CCc2cc3cc(C(=N)N)ccc3o2)cc1 = 120
• N=C(N)c1ccc(-c2sc3ccc(C(=N)N)cc3c2N)cc1 = 8
• N=C(N)c1ccc2oc(/C=C/C=C/c3cc4cc(C(=N)N)ccc4o3)cc2c1 = 3
